quantity: melting point

Completed entries (count: 4):
compound: CC(C)(C)OC(=O)CCc1cccc(-c2nc(=O)c3ccccc3s2)n1
measured-value: 165.8 to 166 °C
//
compound: N#Cc1ccnc(-c2nc(=O)c3ccccc3s2)c1
measured-value: 283.4 to 283.6 °C
//
compound: CC(C)(C)OC(=O)CSc1cccc(-c2nc(=O)c3ccccc3s2)n1
measured-value: 169.5 to 170 °C
//
compound: O=c1nc(-c2cccc([S+]([O-])CCc3ccccc3)n2)sc2ccccc12 (centres unmarked)
measured-value: 164.5 to 165.5 °C

The recorded melting point for entry C[S+]([O-])c1cc(CCC(=O)OC(C)(C)C)cc(-c2nc(=O)c3ccccc3s2)n1 (centres unmarked) equals 219.5 to 220 °C

* * *

quantity: melting point

Completed entries (count: 5):
compound: O=C(O)CCc1cccc(-c2nc(=O)c3ccc(C(F)(F)F)cc3s2)n1 [Example 178]
melting point: 192.9 to 193.1 °C

compound: CCCNc1ccc(-c2nc(=O)c3ccccc3s2)cn1 [Example 31]
melting point: 210.1 to 210.6 °C

compound: COCCNC(=O)c1cccc(-c2nc(=O)c3ccccc3s2)n1 [Example 83]
melting point: 175.5 to 176.7 °C

compound: CC(C)(C)OC(=O)CS(=O)(=O)c1cccc(-c2nc(=O)c3ccccc3s2)n1 [Example 280]
melting point: 159 to 160 °C

compound: COC(=O)CSCc1cccc(-c2nc(=O)c3ccccc3s2)n1 [Example 258]
melting point: 108 to 110 °C

The recorded melting point for entry N#Cc1nc(-c2nc(=O)c3ccccc3s2)ccc1CCC(=O)O [Example 340] equals 283.8 °C (dec.)

The recorded melting point for entry Cl.NCCc1ccnc(-c2nc(=O)c3ccccc3s2)c1 equals 238 °C (dec.)

* * *

Listing of recorded melting point by entry.

compound: O=c1nc(-c2cccc(CCP(=O)(O)O)n2)sc2ccccc12
melting point: 235.3 to 237.2 °C
//
compound: CC(=O)c1ccc(-c2nc(=O)c3ccccc3s2)nc1
melting point: 276.3 to 276.7 °C
//
compound: O=C(O)CCOCCc1cccc(-c2nc(=O)c3ccccc3s2)n1
melting point: 236.6 to 236.7 °C
//
compound: CCOc1ccc(-c2nc(=O)c3ccccc3s2)cn1
melting point: 152.3 to 156.2 °C

The recorded melting point for entry COc1cccc2c(=O)nc(-c3ccccn3)sc12 equals 191.2 to 191.4 °C

The recorded melting point for entry CC(C)(C)OC(=O)/C=C/c1cccc(-c2nc(=O)c3ccccc3s2)n1 equals 175.5 to 177.6 °C

The recorded melting point for entry CSCCC(=O)NCc1cccc(-c2nc(=O)c3ccccc3s2)n1 equals 191.6 to 192.8 °C

The recorded melting point for entry CCCCC[S+]([O-])c1cccc(-c2nc(=O)c3ccccc3s2)n1 (centres unmarked) equals 146 to 147 °C

The recorded melting point for entry O=c1nc(-c2cccc(S(=O)(=O)CCc3ccccc3)n2)sc2ccccc12 equals 161.5 to 163.5 °C

The recorded melting point for entry CCOC(=O)c1cccc(-c2nc(=O)c3ccccc3s2)n1 equals 170 to 172.2 °C

The recorded melting point for entry CC(C)(C)OC(=O)CCOCc1cccc(-c2nc(=O)c3ccccc3s2)n1 equals 84.7 to 84.9 °C

The recorded melting point for entry CCS(=O)(=O)NCc1cccc(-c2nc(=O)c3ccccc3s2)n1 equals 170 to 171 °C

The recorded melting point for entry O=c1nc(-c2cccc(SCCCc3ccccc3)n2)sc2ccccc12 equals 192.5 to 194 °C

The recorded melting point for entry CC(C)CCS(=O)(=O)c1cccc(-c2nc(=O)c3ccccc3s2)n1 equals 145.5 to 147 °C

The recorded melting point for entry CCOC(=O)CCCCc1cccc(-c2nc(=O)c3ccccc3s2)n1 equals 87 to 88 °C

The recorded melting point for entry O=c1nc(-c2cccc(CN3CCC(c4ccccc4)CC3)n2)sc2ccccc12 equals 207 to 208 °C

The recorded melting point for entry CC(C)(C)OC(=O)NCCc1cccc(-c2nc(=O)c3ccccc3s2)n1 equals 170.2 to 170.8 °C

The recorded melting point for entry CCCS(=O)(=O)c1cccc(-c2nc(=O)c3ccccc3s2)n1 equals 173.8 to 174.5 °C

The recorded melting point for entry O=C(NCc1cccc(-c2nc(=O)c3ccccc3s2)n1)C(F)(F)F equals 226.4 to 227.4 °C

The recorded melting point for entry CN(C)CCSc1cccc(-c2nc(=O)c3ccccc3s2)n1 equals 154.8 °C (dec.)

The recorded melting point for entry O=c1nc(-c2cccc(CO)n2)sc2ccccc12 equals 208.2 to 208.7 °C

The recorded melting point for entry CC(=O)OCCCc1cccc(-c2nc(=O)c3ccccc3s2)n1 equals 141.3 to 141.6 °C

Data origin, for the record: patent US7767665B2
